Source listed as patent US6399654B1.

assay explanation: in vitro
condition context: African green monkey, CPE Inhibition IC50 (cytotoxic)
measured property: IC50 (mg/L)

compound	measured property	quantitative result
NC(=O)c1ncn([C@@H]2O[C@H](CO)[C@@H](O)[C@H]2O)n1 [Ribavirin, ribavirin, reference compound]	IC50	120

----------
Readings of IC50 for the listed compounds
assay explanation: Cytotoxicity by neutral red dye uptake, MA-104 cells
condition context: African green monkey, Neutral Red IC50 (cytotoxic), Parainfluenza Type 3 Virus test

compound	unit of measure	IC50
O=C1CC(c2ccc(O)cc2)Oc2cc(O)c(-c3c(O)cc(O)c4c3OC(c3ccc(O)cc3)CC4=O)c(O)c21 (stereo not shown)	µg/mL	30
O=c1cc(-c2ccc(O)c(-c3c(O)cc4oc(-c5ccc(O)cc5)cc(=O)c4c3O)c2)oc2cc(O)cc(O)c12	µg/mL	79

----------
System: HIV-1 (strain LAV-1)
assay explanation: microbe, parasite or virus in culture
Assay type: cell-based
condition context: human PBM cells infected with HIV-1 (strain LAV); read-out: Ant-HIV-1 in PBM cells EC50

structure string	unit of measure	EC50
O=C1c2c(O)cc(O)cc2O[C@H](c2ccc(O)cc2)[C@H]1c1c(O)cc(O)c2c(=O)cc(-c3ccc(O)c(O)c3)oc12	µM	8

----------
Listed below: EC50 values for each entry.
Test system: Hepatitis B Virus (HBV)
assay explanation: Inhibition of HBV replication in 2.2.15 cells, extracellular (virion) HBV DNA;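 further: extracellular virion HBV DNA in culture medium measured by slot blot hybridization with a 32P-labeled HBV probe, quantified against HBV DNA standards, after 9 days of daily dosing, compared with day 0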
condition context: Hepatitis B virus, 216 h, read-out: EC50 (50% effective dose), HBV Virion, 2.2.15 cells, extracellular (virion) HBV DNA, 9 days treatment
measured property: EC50

molecule	measured property	result
O=c1cc(-c2ccc(O)c(-c3c(O)cc(O)c4c(=O)cc(-c5ccc(O)cc5)oc34)c2)oc2cc(O)cc(O)c12 [Amentoflavone (1), amentoflavone]	EC50	> 100 µM
O=c1cc(-c2ccc(Oc3c(O)cc4oc(-c5ccc(O)cc5)cc(=O)c4c3O)cc2)oc2cc(O)cc(O)c12 [Hinokiflavone (4), hinokiflavone]	EC50	> 100 µM
O=C1CC(c2ccc(O)cc2)Oc2cc(O)c(-c3c(O)cc4c(c3O)C(=O)CC(c3ccc(O)cc3)O4)c(O)c21 (centres unmarked) [Succedaneaflavanone (11), succedaneaflavanone]	EC50	> 100 µM
O=c1cc(-c2ccc(OS(=O)(=O)O)c(-c3c(OS(=O)(=O)O)cc4oc(-c5ccc(OS(=O)(=O)O)cc5)cc(=O)c4c3O)c2)oc2cc(OS(=O)(=O)O)cc(O)c12 [Robustaflavone tetrasulfate (17)]	EC50	0.4 µM
O=C1CC(c2ccc(O)cc2)Oc2cc(O)c(-c3c(O)cc(O)c4c3OC(c3ccc(O)cc3)CC4=O)c(O)c21 (centres unmarked) [Rhusflavanone (9), rhusflavanone]	EC50	> 100 µM

----------
Test system: HSV-2
assay explanation: HSV-2 CPE inhibition in HFF cells
condition context: Human alphaherpesvirus 2, HFF, read-out: HSV-2 CPE Inhibition EC50
# EC50 per entry
measured property: EC50 (µg/mL)

molecule	test system	quantitative result
O=c1cc(-c2ccc(O)c(-c3c(O)cc(O)c4c(=O)cc(-c5ccc(O)cc5)oc34)c2)oc2cc(O)cc(O)c12 [Amentoflavone (1), amentoflavone]	HSV-2	48
O=C1CC(c2ccc(O)cc2)Oc2cc(O)c(-c3c(O)cc(O)c4c3OC(c3ccc(O)cc3)CC4=O)c(O)c21 (stereo not drawn) [Rhusflavanone (9), rhusflavanone]	HSV-2	15.7
O=c1cc(-c2ccc(O)c(-c3c(O)cc4oc(-c5ccc(O)cc5)cc(=O)c4c3O)c2)oc2cc(O)cc(O)c12 [Robustaflavone (3), robustaflavone]	HSV-2	8.5

----------
assay explanation: in vitro
condition context: dog, Neutral Red IC50 (cytotoxic), Influenza A (H3N2) test
In this section, each of the molecules is paired with its reported IC50.

molecule	IC50
O=c1cc(-c2ccc(O)c(-c3c(O)cc(O)c4c(=O)cc(-c5ccc(O)cc5)oc34)c2)oc2cc(O)cc(O)c12 [Amentoflavone (1), amentoflavone]	> 100 µg/mL
O=C1CC(c2ccc(O)cc2)Oc2cc(O)c(-c3c(O)cc4c(c3O)C(=O)CC(c3ccc(O)cc3)O4)c(O)c21 (stereo not drawn) [Succedaneaflavanone (11), succedaneaflavanone]	12 µg/mL
COc1ccc(-c2cc(=O)c3c(OC)cc(OC)c(C4C(=O)c5c(OC)cc(OC)cc5OC4c4ccc(OC)cc4)c3o2)cc1 (stereo not drawn) [Volkensiflavone hexamethyl ether (6), volkensiflavone hexamethyl ether]	~100 µg/mL

----------
# reported HCMV SI (CC50/EC50); entries follow
Test system: HCMV
assay explanation: HCMV CPE inhibition in HFF cells
condition context: HFF Cells

compound	HCMV SI (CC50/EC50)
O=C1CC(c2ccc(O)cc2)Oc2cc(O)c(-c3c(O)cc4c(c3O)C(=O)CC(c3ccc(O)cc3)O4)c(O)c21 (stereo not drawn) [Succedaneaflavanone (11), succedaneaflavanone]	<2.7
O=c1cc(-c2ccc(Oc3c(O)cc4oc(-c5ccc(O)cc5)cc(=O)c4c3O)cc2)oc2cc(O)cc(O)c12 [Hinokiflavone (4), hinokiflavone]	<3.2
CC(=O)Oc1ccc([C@@H]2CC(=O)c3c(cc(OC(C)=O)c(-c4c(OC(C)=O)cc(OC(C)=O)c5c4O[C@H](c4ccc(OC(C)=O)cc4)CC5=O)c3OC(C)=O)O2)cc1 [Rhusflavanone hexaacetate (10), rhusflavanone hexaacetate]	<3.3
O=c1cc(-c2ccc(O)c(-c3c(O)cc4oc(-c5ccc(O)cc5)cc(=O)c4c3O)c2)oc2cc(O)cc(O)c12 [Robustaflavone (3), robustaflavone]	>1.8
COc1ccc(-c2cc(=O)c3c(OC)cc(OC)c(C4C(=O)c5c(OC)cc(OC)cc5OC4c4ccc(OC)cc4)c3o2)cc1 (stereo not drawn) [Volkensiflavone hexamethyl ether (6), volkensiflavone hexamethyl ether]	0
O=C1CC(c2ccc(O)cc2)Oc2cc(O)c(-c3c(O)cc(O)c4c3OC(c3ccc(O)cc3)CC4=O)c(O)c21 (stereo not drawn) [Rhusflavanone (9), rhusflavanone]	<3.4

----------
Tested on: HSV-2
assay explanation: HSV-2 CPE inhibition in HFF cells
condition context: HFF Cells
Property: HSV-2 SI (CC50/EC50); scope: individual molecules
measured property: HSV-2 SI (CC50/EC50)

molecule	measured property	result
O=c1cc(-c2ccc(O)c(-c3c(O)cc(O)c4c(=O)cc(-c5ccc(O)cc5)oc34)c2)oc2cc(O)cc(O)c12 [Amentoflavone (1), amentoflavone]	HSV-2 SI (CC50/EC50)	>2.1
CC(=O)Oc1ccc([C@@H]2CC(=O)c3c(cc(OC(C)=O)c(-c4c(OC(C)=O)cc5c(c4OC(C)=O)C(=O)C[C@@H](c4ccc(OC(C)=O)cc4)O5)c3OC(C)=O)O2)cc1 [Succedaneaflavanone hexaacetate (12), succedaneaflavanone hexaacetate]	HSV-2 SI (CC50/EC50)	<4.4
O=c1cc(-c2ccc(Oc3c(O)cc4oc(-c5ccc(O)cc5)cc(=O)c4c3O)cc2)oc2cc(O)cc(O)c12 [Hinokiflavone (4), hinokiflavone]	HSV-2 SI (CC50/EC50)	<319
COc1ccc(-c2cc(=O)c3c(OC)cc(OC)c(C4C(=O)c5c(OC)cc(OC)cc5OC4c4ccc(OC)cc4)c3o2)cc1 (stereo not shown) [Volkensiflavone hexamethyl ether (6), volkensiflavone hexamethyl ether]	HSV-2 SI (CC50/EC50)	0
CC(=O)Oc1ccc([C@@H]2CC(=O)c3c(cc(OC(C)=O)c(-c4c(OC(C)=O)cc(OC(C)=O)c5c4O[C@H](c4ccc(OC(C)=O)cc4)CC5=O)c3OC(C)=O)O2)cc1 [Rhusflavanone hexaacetate (10), rhusflavanone hexaacetate]	HSV-2 SI (CC50/EC50)	<4.6
O=C1CC(c2ccc(O)cc2)Oc2cc(O)c(-c3c(O)cc4c(c3O)C(=O)CC(c3ccc(O)cc3)O4)c(O)c21 (stereo not shown) [Succedaneaflavanone (11), succedaneaflavanone]	HSV-2 SI (CC50/EC50)	<3.0
O=C1CC(c2ccc(O)cc2)Oc2cc(O)c(-c3c(O)cc(O)c4c3OC(c3ccc(O)cc3)CC4=O)c(O)c21 (stereo not shown) [Rhusflavanone (9), rhusflavanone]	HSV-2 SI (CC50/EC50)	>6.4

----------
Test system: Madin Darby canine kidney (MDCK) cells
condition context: Influenza A (H3N2) test

compound	qual	CPE Inhibition IC50 (cytotoxic) (µg/mL)
CC(=O)Oc1ccc([C@@H]2CC(=O)c3c(cc(OC(C)=O)c(-c4c(OC(C)=O)cc5c(c4OC(C)=O)C(=O)C[C@@H](c4ccc(OC(C)=O)cc4)O5)c3OC(C)=O)O2)cc1 [Succedaneaflavanone hexaacetate (12), succedaneaflavanone hexaacetate]	=	12
O=c1cc(-c2ccc(O)c(-c3c(O)cc(O)c4c(=O)cc(-c5ccc(O)cc5)oc34)c2)oc2cc(O)cc(O)c12	>	100
CC(=O)Oc1ccc([C@@H]2CC(=O)c3c(cc(OC(C)=O)c(-c4c(OC(C)=O)cc(OC(C)=O)c5c4O[C@H](c4ccc(OC(C)=O)cc4)CC5=O)c3OC(C)=O)O2)cc1 [Rhusflavanone hexaacetate (10), rhusflavanone hexaacetate]	=	5.6
